Reported IC50 values for the following compounds.
target: UniProt:O95551
Sequence (O95551 whole entry): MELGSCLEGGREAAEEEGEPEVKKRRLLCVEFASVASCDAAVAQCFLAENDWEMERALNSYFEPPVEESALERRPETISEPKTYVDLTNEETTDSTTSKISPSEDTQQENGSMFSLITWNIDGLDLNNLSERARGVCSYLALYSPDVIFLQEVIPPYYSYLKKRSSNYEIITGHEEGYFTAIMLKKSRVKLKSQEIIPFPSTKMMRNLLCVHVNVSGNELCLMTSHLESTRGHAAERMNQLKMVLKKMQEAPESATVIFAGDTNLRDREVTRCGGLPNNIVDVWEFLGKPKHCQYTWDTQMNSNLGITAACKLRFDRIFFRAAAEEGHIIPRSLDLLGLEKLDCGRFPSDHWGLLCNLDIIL
test: Inhibition of recombinant human TDP2 using TY18 (alpha-[32P]-cordycepin-3'-labeled) as substrate after 15 mins by PAGE analysis
Hi! Could you send only the number? It should be in µM, unit omitted.

Here are 6 compounds together with their reported answers.
> print(dat)
                         structure.notation  unit.info  readout.value
1  Cc1oc2c(c1C(=O)OC[C@H](O)CO)C(=O)c1ncccc1C2=O         µM             50
2  COC(=O)[C@H](Cc1ccc(OC(=O)c2c(C)oc3c2C(=O)c2ncccc2C3=O)cc1)NC(C)=O         µM             23
3  Cc1oc2c(c1C(=O)OCCC[n+]1ccc(N(C)C)cc1)C(=O)c1ncccc1C2=O         µM             43
4     Cc1oc2c(c1C(=O)OCCO)C(=O)c1ncccc1C2=O         µM             20
5      CCOC(=O)c1c(C)oc2c1C(=O)c1cccnc1C2=O         µM             43
6   COP(=O)(OC)c1c(C)oc2c1C(=O)c1cccnc1C2=O         µM             99

## Task Please give the measured IC50 for this compound: Cc1oc2c(c1C(=O)Oc1ccc(OCCCN3CCOCC3)cc1)C(=O)c1ncccc1C2=O
## Result 51

## Task Find the recorded IC50 belonging to Cc1oc2c(c1C(=O)OCCOCCO)C(=O)c1ncccc1C2=O and report it.
## Result 22

---

target: Tyrosyl-DNA phosphodiesterase 2 (Homo sapiens)
test: Inhibition of recombinant human TDP2 using TY18 (alpha-[32P]-cordycepin-3'-labeled) as substrate after 15 mins by PAGE analysis
observed-property: IC50 (µM)
Respond with the bare value in µM.

Some molecules with recorded IC50:
> print(dat)
                         structure.notation  observed.property  unit.info  readout.value
1  Cc1oc2c(c1C(=O)OCCc1ccccc1)C(=O)c1ncccc1C2=O               IC50         µM             53
2  Cc1oc2c(c1C(=O)Oc1ccc([N+](=O)[O-])cc1)C(=O)c1ncccc1C2=O               IC50         µM             28
3  Cc1oc2c(c1C(=O)Oc1cccc(N)c1)C(=O)c1ncccc1C2=O               IC50         µM             16
4  Cc1oc2c(c1C(=O)Oc1ccccc1O)C(=O)c1ncccc1C2=O               IC50         µM            7.6

## Task Request: IC50, test system Tyrosyl-DNA phosphodiesterase 2 (Homo sapiens), entry Cc1oc2c(c1C(=O)OCCC[n+]1ccccc1)C(=O)c1ncccc1C2=O
## Result 32

## Task Tell me reported IC50 for C#Cc1cccc(OC(=O)c2c(C)oc3c2C(=O)c2ncccc2C3=O)c1 , tested with Tyrosyl-DNA phosphodiesterase 2 (Homo sapiens).
## Result 43

## Task Item Cc1oc2c(c1C(=O)Oc1ccc(NC(=O)OC(C)(C)C)cc1)C(=O)c1ncccc1C2=O with Tyrosyl-DNA phosphodiesterase 2 (Homo sapiens) - IC50?
## Result 88
